These entries and their values trace back to PubChem BioAssay AID540269.

# assayTarget: glucose-6-phosphate dehydrogenase-6-phosphogluconolactonase (Plasmodium falciparum 3D7)
# experimentNotes: PfG6PD enzyme inhibitors, kinetic NADPH readout, dose response, orthogonal assay, biochemical, kinetic NADPH detection (AID 540269)
# conditionSet: purified PfG6PD-6PGL
Activity calls are given as the source filed them. The rule behind the calls is not given here.
Your response should consist of one outcome taken from label 1 (active), label 0 (inactive)

Past entries and their recorded results:
>>> df
                                   compound                               assaytarget  labelvalue
0  O=C(CCc1ccc(S(=O)(=O)N2CCOCC2)cc1)N/N=C/c1ccc(O)c(O)c1O  glucose-6-phosphate dehydrogenase-6-phosphogluconolactonase (Plasmodium falciparum 3D7)     label 1
1                      c1ccc(SSc2ccccn2)nc1  glucose-6-phosphate dehydrogenase-6-phosphogluconolactonase (Plasmodium falciparum 3D7)     label 1
2  COc1cc(NCCCn2cnc3c(OCc4ccccc4)ncnc32)cc(OC)c1OC  glucose-6-phosphate dehydrogenase-6-phosphogluconolactonase (Plasmodium falciparum 3D7)     label 0
3  COc1ccc2nc3cc(Cl)ccc3c(Nc3ccc(O)c(CN4CCN(C)CC4)c3)c2c1  glucose-6-phosphate dehydrogenase-6-phosphogluconolactonase (Plasmodium falciparum 3D7)     label 0
4  COc1ccc(/C=C/c2nc3ccccc3n2Cc2ccc(OC)c(OC)c2)cc1  glucose-6-phosphate dehydrogenase-6-phosphogluconolactonase (Plasmodium falciparum 3D7)     label 1
5  Cc1cc(O)c(C(C)C)cc1N=Cc1ccc([N+](=O)[O-])cc1  glucose-6-phosphate dehydrogenase-6-phosphogluconolactonase (Plasmodium falciparum 3D7)     label 0

Hi, sorry to bother you, what did the test record for COc1cccc(C=Nc2cc(C(C)C)c(O)cc2C)c1O ? label 0

Hi, sorry to bother you, what did the test record for CC1CCc2[nH]c3ccc(C(=O)N(C)CC(=O)Nc4ccccc4C(F)(F)F)cc3c2C1 (configuration not stated) ? label 0

Hi, sorry to bother you, what did the test record for CCCn1cc(S(=O)(=O)CC(=O)Nc2ccc(OC)cc2OC)c2ccccc21 ? label 0

Hi, sorry to bother you, what did the test record for Cc1cc(C)c2c(=O)n(CC(=O)Nc3ccc(Cl)cc3)sc2n1 ? label 0

Hi, sorry to bother you, what did the test record for Cc1ccc(/C=C/C(=O)NCC2COc3ccccc3O2)o1 (configuration not stated) ? label 0

Hi, sorry to bother you, what did the test record for COc1cc(N)c2ncccc2c1Cl ? label 1

Hi, sorry to bother you, what did the test record for C[C@H](CO)N1C[C@H](C)[C@@H](CN(C)C(=O)Nc2ccc(C(F)(F)F)cc2)Oc2c(cccc2N(C)C)C1=O ? label 0

Hi, sorry to bother you, what did the test record for CC1CN(c2ccccc2)NC1=O (configuration not stated) ? label 0

Hi, sorry to bother you, what did the test record for O=C1NC(=O)C(=Cc2ccc(-c3ccccc3[N+](=O)[O-])o2)C(=O)N1 ? label 1

Hi, sorry to bother you, what did the test record for Cc1ccc(NC(=O)Cn2sc3nc(C)cc(C)c3c2=O)c(Cl)c1 ? label 0

Hi, sorry to bother you, what did the test record for Cc1[nH]c(=S)c(C#N)c(C)c1CCC#N ? label 0

Hi, sorry to bother you, what did the test record for Cc1ccc2nc3sc(C(=O)N4CCOCC4)c(N)c3cc2c1 ? label 1

Hi, sorry to bother you, what did the test record for Cc1ccc(-c2c(C(=O)N/N=C/c3cccs3)nnn2-c2nonc2N)cc1 ? label 0

====

# assayTarget: glucose-6-phosphate dehydrogenase-6-phosphogluconolactonase (Plasmodium falciparum 3D7)
# experimentNotes: PfG6PD enzyme inhibitors, kinetic NADPH readout, dose response, orthogonal assay, biochemical, kinetic NADPH detection (AID 540269)
# conditionSet: purified PfG6PD-6PGL
Active and inactive are the calls of the source. How the calls were made is not given here.
Your response should consist of one outcome taken from yes for active, no for inactive

Hi, sorry to bother you, what did the test record for O=S(=O)(NCc1csc(-c2ccccc2)n1)c1ccc(Cl)s1 ? no

Hi, sorry to bother you, what did the test record for O=S(=O)(Nc1ccc(Cl)cc1)c1ccc(N2CCOCC2)c(NC(=S)NCCN2CCOCC2)c1 ? no

Hi, sorry to bother you, what did the test record for O=c1c2ccccc2sn1-c1cc(S(=O)(=O)N2CCOCC2)ccc1N1CCCC1 ? yes

Hi, sorry to bother you, what did the test record for O=C(N/N=C/c1cccc([N+](=O)[O-])c1)C(=O)N1CCCCCC1 ? no

Hi, sorry to bother you, what did the test record for CC(C)c1cc2c(c(O)c1O)[C@@]13CCCC(C)(C)C1CC2OC3=O (stereo partly specified) ? yes

Hi, sorry to bother you, what did the test record for O=C(NC1=CC(=O)c2ccccc2C1=O)c1ccccc1 ? yes

====

# assayTarget: glucose-6-phosphate dehydrogenase-6-phosphogluconolactonase (Plasmodium falciparum 3D7)
# experimentNotes: PfG6PD enzyme inhibitors, kinetic NADPH readout, dose response, orthogonal assay, biochemical, kinetic NADPH detection (AID 540269)
# conditionSet: purified PfG6PD-6PGL
Activity calls are given as the source filed them. How the calls were made is not given here.
Your response should consist of one outcome taken from true = active, false = inactive

>>> df
                                smilesentry                               assaytarget  labelvalue
0         Cc1ccc(C)c(-n2sc3ccc(F)cc3c2=O)c1  glucose-6-phosphate dehydrogenase-6-phosphogluconolactonase (Plasmodium falciparum 3D7)        true
1  COc1ccc(NS(=O)(=O)c2ccc(N3CCCC3)c(NC(=S)Nc3cccc(C)c3C)c2)cc1  glucose-6-phosphate dehydrogenase-6-phosphogluconolactonase (Plasmodium falciparum 3D7)       false
2         CCN1CCN(C(=S)c2ccc(Cl)c(Cl)c2)CC1  glucose-6-phosphate dehydrogenase-6-phosphogluconolactonase (Plasmodium falciparum 3D7)       false
3  CCOc1ccccc1C=NNC(=O)CCCCC(=O)NN=Cc1ccccc1OCC  glucose-6-phosphate dehydrogenase-6-phosphogluconolactonase (Plasmodium falciparum 3D7)       false
4   CC(=O)Nc1ccc(S(=O)(=O)NNc2cccc(C)c2)cc1  glucose-6-phosphate dehydrogenase-6-phosphogluconolactonase (Plasmodium falciparum 3D7)       false

Hi, sorry to bother you, what did the test record for O=C(Cn1sc2ccccc2c1=O)Nc1ccc(F)cc1 ? true

====

# assayTarget: glucose-6-phosphate dehydrogenase-6-phosphogluconolactonase (Plasmodium falciparum 3D7)
# experimentNotes: PfG6PD enzyme inhibitors, kinetic NADPH readout, dose response, orthogonal assay, biochemical, kinetic NADPH detection (AID 540269)
# conditionSet: purified PfG6PD-6PGL
Activity calls are given as the source filed them. How the calls were made is not given here.
Your response should consist of one outcome taken from active, inactive

                                   compound  labelvalue
0  Cc1ccc(/C=C/C(=O)NCc2ccc(S(N)(=O)=O)cc2)o1    inactive
1  O=C(CSc1nc2ccc(Cl)cc2[nH]1)NC1CCCc2ccccc21 (stereo unspecified)    inactive

Hi, sorry to bother you, what did the test record for COc1cccc(/C=N/NC(=O)CSc2cccc3cccnc23)c1 ? active

Hi, sorry to bother you, what did the test record for CCOC(=O)Nc1ccc(NCc2ccc(F)cc2)nc1N ? inactive

Hi, sorry to bother you, what did the test record for Cc1cc(C)c(NC(=S)NCC2CCN(C(C)c3ccccc3)C2)c(C)c1 (stereo unspecified) ? inactive

Hi, sorry to bother you, what did the test record for CC(=O)OCC1(C)CN(c2ccccc2)NC1=O (stereo unspecified) ? inactive

Hi, sorry to bother you, what did the test record for Cc1cc(C(=O)O)ccc1-n1c(C)cc(C=C2C(=O)c3ccccc3C2=O)c1C ? inactive

Hi, sorry to bother you, what did the test record for O=S(c1ccccc1O)S(=O)c1ccccc1O (stereo unspecified) ? active

Hi, sorry to bother you, what did the test record for Cc1ccc(-c2c(C(=O)N/N=C/c3ccc(C)o3)nnn2-c2nonc2N)cc1 ? active

Hi, sorry to bother you, what did the test record for COc1ccc(C(=O)Nc2sc3c(c2C(=O)O)CC(C)(C)OC3)cc1 ? active

Hi, sorry to bother you, what did the test record for CN1CCN(C(=S)C(=O)Nc2ccc(Br)cc2)CC1 ? active

====

# assayTarget: glucose-6-phosphate dehydrogenase-6-phosphogluconolactonase (Plasmodium falciparum 3D7)
# experimentNotes: PfG6PD enzyme inhibitors, kinetic NADPH readout, dose response, orthogonal assay, biochemical, kinetic NADPH detection (AID 540269)
# conditionSet: purified PfG6PD-6PGL
Activity calls are given as the source filed them. The rule behind the calls is not given here.
Your response should consist of one outcome taken from active, inactive

>>> df
                                smilesentry  labelvalue
0  Cc1ccc(NC(=O)c2cc(N3C(=O)C=CC3=O)ccc2N2CCOCC2)cc1Cl    inactive

Hi, sorry to bother you, what did the test record for COc1cc(N)c2ncsc2c1 ? inactive

Hi, sorry to bother you, what did the test record for COc1ccc(-c2cn3cc(C)ccc3n2)cc1Br ? inactive

====

# assayTarget: glucose-6-phosphate dehydrogenase-6-phosphogluconolactonase (Plasmodium falciparum 3D7)
# experimentNotes: PfG6PD enzyme inhibitors, kinetic NADPH readout, dose response, orthogonal assay, biochemical, kinetic NADPH detection (AID 540269)
# conditionSet: purified PfG6PD-6PGL
The source made the active and inactive calls. The rule behind the calls is not given here.
Your response should consist of one outcome taken from active, inactive

Past entries and their recorded results:
>>> df
                                   molecule  labelvalue
0    CCOc1cc(CNc2ccc(N3CCCC3)cc2)cc(Cl)c1OC    inactive
1         Cc1ccc(NC(=O)Cn2sc3ccccc3c2=O)cc1      active
2  CCc1ccccc1N1CSC2=C(C#N)C(c3ccccc3F)CC(=O)N2C1 (stereo unspecified)    inactive
3  COC(=O)CCC(=O)Nc1sc(Cc2ccccc2)c(C)c1C(N)=O      active
4       O=S(=O)(Nc1c(O)ccc2ccccc12)c1ccccc1      active

# next molecule below
Hi, sorry to bother you, what did the test record for Nc1c(C(=O)Nc2ccc(F)cc2)sc(=S)n1-c1ccccc1F ? inactive
